Molecular target: Human IL-17A重组蛋白 (Gly 24-Ala 155, C端6×His) (human, biotinylated in the ELISA of paragraph 251 (Biotin-IL-17A-His))
Sequence (chain, as listed by the source): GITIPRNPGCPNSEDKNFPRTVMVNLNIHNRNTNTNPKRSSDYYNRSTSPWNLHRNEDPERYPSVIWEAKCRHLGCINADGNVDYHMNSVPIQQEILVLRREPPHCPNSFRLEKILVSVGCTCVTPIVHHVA
Assay: ELISA: antibody coated at 2 μg/mL, Biotin-IL-17A-His titrated from 10 μg/mL (5-fold, 7 points), HRP-streptavidin
Outcome measure: EC50 (µg/mL)

Binder	Measured number
单域抗体1-C3 (Fc fusion, not shown: human IgG1 Fc of vector pcDNA3.4-hIgG1-Fc) DVQLVESGGGLVEPGESLRLSCAAPGEDLGYYAIAWFRQAPGKEREVVSCVTSSGSSTNYLSSVKDRFTISIDNAKNTVYLQMNSLKPEDTAVYYCASTILLCSDYISAFGTWGQGTQVTVAS	5.28
单域抗体3-H10 (Fc fusion, not shown: human IgG1 Fc of vector pcDNA3.4-hIgG1-Fc) EVQLVESGGGLVQPGGSLRLSCAASGFSIHIYAMGWYRQAPGKQRELVATITRGGVTNNADSVKGRFTISRDNAKNTAYLQMNSLKPEDTAVYYCNAGGTNGGYWGQGTQVTVSS	1.22
阳性对照抗体Ixekizumab (antibody, human IgG4 S228P, kappa, V domains shown, also called 阳性抗体; 依奇珠单抗) VH: QVQLVQSGAEVKKPGSSVKVSCKASGYSFTDYHIHWVRQAPGQGLEWMGVINPMYGTTDYNQRFKGRVTITADESTSTAYMELSSLRSEDTAVYYCARYDYFTGTGVYWGQGTLVTVSS VL: DIVMTQTPLSLSVTPGQPASISCRSSRSLVHSRGNTYLHWYLQKPGQSPQLLIYKVSNRFIGVPDRFSGSGSGTDFTLKISRVEAEDVGVYYCSQSTHLPFTFGQGTKLEIKR	10.1
串联单域抗体1-C3-3-H10 (VHH-(GGGGS)3-VHH-IgG1 Fc) (Fc fusion, also called C3-H10; C3-H10重组蛋白; not shown: human IgG1 Fc) DVQLVESGGGLVEPGESLRLSCAAPGEDLGYYAIAWFRQAPGKEREVVSCVTSSGSSTNYLSSVKDRFTISIDNAKNTVYLQMNSLKPEDTAVYYCASTILLCSDYISAFGTWGQGTQVTVASGGGGSGGGGSGGGGSEVQLVESGGGLVQPGGSLRLSCAASGFSIHIYAMGWYRQAPGKQRELVATITRGGVTNNADSVKGRFTISRDNAKNTAYLQMNSLKPEDTAVYYCNAGGTNGGYWGQGTQVTVSS	1.13
